FYI, the data here is from patent US7250521B2.

assay: logP determination by HPLC on reverse-phase column (C 18), EEC directive 79/831 Annex V.A8; type: physicochemical; settings: reverse-phase HPLC column (C 18), pH 7.5, neutral range, pH 7.5; 0.01 molar aqueous phosphate buffer/acetonitrile gradient; 43° C.; values marked b)
propertyName: chromatographic logP

Recorded chromatographic logP (compound Clc1ccccc1C1=NC(c2ccc(Br)cc2)CC1 (centres unmarked) ): 4.36

Measured chromatographic logP, Cc1ccc(C2CCC(c3ccccc3Br)=N2)cc1Cl (centres unmarked) : 4.69

In plain terms, CCOc1cc(C(C)(C)C)ccc1C1CCC(c2ccccc2Br)=N1 (centres unmarked) has a documented chromatographic logP of 5.8

The compound listed as Cc1cc(Cl)ccc1C1CCC(c2ccccc2Cl)=N1 (centres unmarked) has a reported chromatographic logP of 4.62

In plain terms, Clc1ccc(C2CCC(c3ccccc3Cl)=N2)cc1 (centres unmarked) has a documented chromatographic logP of 4.23
